test: Luminescence Cell-Based Dose Response HTS to Identify Inhibitors of 5'UTR Stem-Loop Driven Prion Protein mRNA Translation in H4 Neuroglioblastoma Cells. [Related pubchem assays: 1827 (Project Summary), 1813 (Primary HTS)]; format: functional
Calls of active or inactive are those of the source.
Could you please report measured EC50 for the items listed next?

The following compounds have reported results that may help.
* COc1ccc(C(NC(=O)c2cccnc2)c2cc(Cl)c3cccnc3c2O)cc1OC (configuration not stated) | 0.297 µM (active)
* CC1CN(C(=O)c2ccccc2)/C(=N/c2cccc(S(=O)(=O)N(C)C)c2)S1 (configuration not stated) | > 120 µM (not active)
* O=C1CCNc2cc3ccccc3cc21 | > 120 µM (not active)

List EC50 for every entry below, keeping the order given.
1. CCOC(=O)C1(CCOc2ccccc2)CCN(Cc2ccc(O)c(Cl)c2)CC1
2. Cc1ccc(C(C)C)c(OCC(=O)Nc2ccc3c(c2)nc(CCN2CCCCC2)n3C)c1
3. O=C1Nc2ccccc2N(O)N1c1cc(-c2ccccc2Cl)no1

Result:
["> 120 µM (not active)", "35.8 µM (active)", "70.3 µM (active)"]

List EC50 for every entry below, keeping the order given.
1. CCCCC[C@H](O)/C=C/[C@@H]1[C@@H](C/C=C\CCCC(=O)OC)[C@@H](O)C[C@H]1O
2. CCN(CC)S(=O)(=O)N1CCC(C(=O)N2CCC3(CC2)OCCO3)CC1
3. CCOc1ccc(S(=O)(=O)Nc2cc(SCC(=O)O)c(O)c3ccccc23)cc1

Result:
["> 120 µM (not active)", "17.6 µM (active)", "> 120 µM (not active)"]

List EC50 for every entry below, keeping the order given.
1. CCOC(=O)N1CCN(C(=O)c2ccc3nc4ccc(Cl)cc4c(=O)n3c2)CC1
2. Cc1ccc(-c2csc3ncnc(-n4nnc5ccccc54)c23)cc1C
3. CCOC(=O)/C=c1\s/c(=C\c2c(OC)ccc3ccccc23)c(=O)n1CC(=O)NCC1CCCO1 (configuration not stated)

Result:
37.5 µM (active)
> 120 µM (not active)
12.3 µM (active)

---

test: viability of HCT116 lacking mutant beta-catenin – cell-based, human colon tumor, dose response (AID 1045); assay type: functional;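 also: HCT116 colon tumor cells with beta catenin knocked out; cells exposed to compound for 60 hours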
The source made the active and inactive calls.
Could you please report measured EC50 for the items listed next?

The following molecules have reported results that may help.
- Cc1cc(-c2nnc3n2N=C(c2ccc(-c4ccccc4)cc2)CS3)[nH]n1: 13.7 µM (active)
- COc1ccc(CNCCC(c2ccc(OC(C)C)cc2)C(C)C)cc1OC (stereo unspecified): 10.7 µM (active)
- O=C(Nc1ccc(F)cc1)c1nc[nH]c1C(=O)Nc1ccccc1[N+](=O)[O-]: 4.18 µM (active)
- Nc1c(C(=O)NCc2ccc(F)cc2)c2nc3ccccc3nc2n1CCCN1CCOCC1: 18.9 µM (active)
- CCn1nccc1C(=O)Nc1ccc(S(=O)(=O)NC23CC4CC(CC(C4)C2)C3)cc1: 27.9 µM (active)

Consider the record given below.
Request: Query: EC50; subject: `Cn1nc(CC(=O)Nc2ccc(N3CCN(C(=O)OC(C)(C)C)CC3)cc2)c2ccccc2c1=O`
Result: 5.89 µM (active)

---

test: Dd2 malaria parasite growth inhibition potency – SYBR Green, dry powder samples, dose response (AID 1159566); type: functional, cell-based;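 also: potency for growth inhibition with lower SYBR green DNA signal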
Activity calls are given as the source filed them.
MEASURE NAME: AC50

- COc1ccccc1CN1CC2(C1)[C@H](c1ccccc1)[C@H](CO)N2Cc1ccccc1: 1.96 µM (active)
- C[C@@H]1CN([C@H](C)CO)C(=O)c2cc(C#Cc3cccc(F)c3)cnc2O[C@@H]1CN(C)C(=O)C1CCCCC1: 2.16 µM (active)
- C[C@@H]1CN([C@@H](C)CO)S(=O)(=O)c2ccc(C#CC3CCCC3)cc2O[C@H]1CN(C)C(=O)Cc1ccncc1: 0.722 µM (active)

Consider the record given below.
Request: Query: AC50; subject: `C[C@H]1CN([C@@H](C)CO)C(=O)c2ccccc2-c2ccccc2CO[C@@H]1CN(C)C(=O)Nc1ccc(-c2ccccc2)cc1`
Result: 0.723 µM (active)
